# assayedTarget: Phosphorylated BTK in Ramos cells (Homo sapiens (Human), UniProt Q06187)
# Sequence (Q06187 whole entry): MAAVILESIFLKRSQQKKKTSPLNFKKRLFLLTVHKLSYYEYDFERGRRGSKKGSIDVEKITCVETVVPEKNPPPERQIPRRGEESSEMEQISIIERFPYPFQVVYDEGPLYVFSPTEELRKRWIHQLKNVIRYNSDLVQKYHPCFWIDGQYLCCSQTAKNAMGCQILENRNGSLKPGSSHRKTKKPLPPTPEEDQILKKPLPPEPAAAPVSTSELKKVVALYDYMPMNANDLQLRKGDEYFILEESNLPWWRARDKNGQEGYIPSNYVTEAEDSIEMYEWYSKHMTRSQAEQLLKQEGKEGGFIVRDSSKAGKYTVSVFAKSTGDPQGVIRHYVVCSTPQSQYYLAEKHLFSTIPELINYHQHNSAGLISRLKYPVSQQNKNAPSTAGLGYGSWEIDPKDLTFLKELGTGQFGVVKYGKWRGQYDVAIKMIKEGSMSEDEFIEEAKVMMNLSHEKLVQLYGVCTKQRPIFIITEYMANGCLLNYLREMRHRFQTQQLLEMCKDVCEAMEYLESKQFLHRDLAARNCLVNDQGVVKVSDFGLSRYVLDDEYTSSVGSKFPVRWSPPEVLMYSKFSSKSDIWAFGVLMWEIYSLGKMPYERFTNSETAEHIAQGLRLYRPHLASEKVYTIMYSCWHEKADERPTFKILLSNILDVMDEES
# protocol: Determination of phosphorylated BTK in Ramos cells (BTK phospho-Y223 HTRF)
# appliedConditions: Ramos cells stimulated with immunoglobulin M 10 μg/mL and hydrogen peroxide 3.3 mM, 10 minutes
pIC50: −log10 of the molar value.
This listing pairs compounds with measured pIC50.
measuredProperty: pIC50

INSERT INTO assay_data (compound, assayedtarget, reportedmeasurement) VALUES
  ('C[C@@H]1CN(C2COC2)C[C@H](C)N1c1ccc(Nc2cc(-c3ccnc(-n4ccn5c6c(cc5c4=O)CC(C)(C)C6)c3CO)cn(C)c2=O)nc1 [Compound 2]', 'Phosphorylated BTK in Ramos cells (Homo sapiens (Human), UniProt Q06187)', 8.22),
  ('C[C@H]1CN(C2COC2)C[C@H](C)N1c1ccc(Nc2cc(-c3ccnc(-n4ccn5c6c(cc5c4=O)CC(C)(C)C6)c3CO)cn(C)c2=O)nc1 [Compound 1]', 'Phosphorylated BTK in Ramos cells (Homo sapiens (Human), UniProt Q06187)', 8.30),
  ('C[C@H]1CN(C2COC2)C[C@H](C)N1c1ccc(Nc2cc(-c3ccnc(-n4ncn5c6c(cc5c4=O)CC(C)(C)C6)c3CO)cn(C)c2=O)nc1 [Compound 4]', 'Phosphorylated BTK in Ramos cells (Homo sapiens (Human), UniProt Q06187)', 8.52);

----------
Recorded measurements of concentration at 16 h, one per entry
# protocol: Drug concentration in plasma of mice of the B cell activation study
# Type: in vivo
# appliedConditions: C57BL/6, plasma; mouse, 20 mg/kg oral, 16 h after administration
measuredProperty: concentration at 16 h

INSERT INTO assay_data (molecule, measuredproperty, reportedmeasurement) VALUES
  ('C[C@@H]1CN(C2COC2)C[C@H](C)N1c1ccc(Nc2cc(-c3ccnc(-n4ccn5c6c(cc5c4=O)CC(C)(C)C6)c3CO)cn(C)c2=O)nc1', 'concentration at 16 h', '6.6 ng/mL'),
  ('C[C@H]1CN(C2COC2)CCN1c1ccc(Nc2cc(-c3ccnc(N4CCn5c(cc6c5CC(C)(C)C6)C4=O)c3CO)cn(C)c2=O)nc1 [GDC-0853, fenebrutinib, reference compound]', 'concentration at 16 h', '5.01 ng/mL');

----------
# protocol: Drug concentration in plasma of mice of the B cell activation study
# Type: in vivo
# appliedConditions: C57BL/6, plasma; mouse, 5 mg/kg oral, 16 h after administration
measuredProperty: concentration at 16 h (ng/mL)

INSERT INTO results (molecule, reportedmeasurement) VALUES
  ('C[C@H]1CN(C2COC2)C[C@H](C)N1c1ccc(Nc2cc(-c3ccnc(-n4ccn5c6c(cc5c4=O)CC(C)(C)C6)c3CO)cn(C)c2=O)nc1', 6.27);
